procedure text: qHTS assay for small molecules that induce genotoxicity in human embryonic kidney cells expressing luciferase-tagged ATAD5 - cell viability (AID 651634); also: nearly all actives have a fitted effect of over 25% in size
run parameters: HEK293T ATAD5-luc cells viability, CellTiter-Fluor, 15.5 h; series mostly up to 83.3 µM
Records with an inconclusive call do not appear. Calls of active or inactive are those of the source. Calls follow the shape of the full dose curve.
quantity kind: outcome

# count of solved cases: 5
compound	outcome
COc1cc(S(C)=O)ccc1-c1nc2ncccc2[nH]1 (stereo not drawn)	inactive
CC(=O)Nc1c(I)c(C(=O)N[C@H]2C(O)O[C@H](CO)[C@@H](O)[C@@H]2O)c(I)c(N(C)C(C)=O)c1I (stereo partly drawn)	inactive
Cc1cccc(C)c1Nc1ncccc1C(=O)O	inactive
COc1ccc(C(=O)CCC(=O)O)c2ccccc12	inactive
Cn1nnnc1SCC1=C(C(=O)O)N2C(=O)[C@@H](NC(=O)[C@H](OC=O)c3ccccc3)[C@H]2SC1	inactive

Suppose we examine the compound CCOC(=O)Cc1cccc(-c2cc(CCCCCCc3ccc(O[C@H]4O[C@H](COC(C)=O)[C@@H](OC(C)=O)[C@H](OC(C)=O)[C@@H]4OC(C)=O)c(-c4cccc(CC(=O)OCC)c4)c3)ccc2O[C@H]2O[C@H](COC(C)=O)[C@@H](OC(C)=O)[C@H](OC(C)=O)[C@@H]2OC(C)=O)c1 ; what outcome value has been reported? inactive

If you can, please state the reported outcome value of CN1CCN(C2=Nc3ccccc3Cc3ccccc32)CC1 . inactive

Request the reported outcome associated with CCN1C(=O)NC(c2ccccc2)C1=O (stereo not drawn) inactive

meta.source: PubChem BioAssay (Tox21)
